test_summary: Plasma free fraction (fP) by ultrafiltration
Type: in vitro ADME, rhesus monkeys
assay_conditions: monkey plasma
readout_kind: fraction unbound
Numbers only.

{"compound": "COc1ccc2c(c1)CCN(CCCCc1ccccc1[18F])C[C@H]2O [(S)-[^18F]OF-Me-NB1]", "obs_value": 0.018}

// next entry
In: Param item = COc1ccc2c(c1)CCN(CCCCc1ccccc1[18F])C[C@@H]2O [(R)-[^18F]OF-Me-NB1] ; retrieve measured fraction unbound.
Out: 0.012

All figures here come from paper PMC9165293.
